Read-out: Interleukin-8 (IL8), CXCL8 (gene 3576)
assayOverview: BSK_hDFCGF_IL8: BioMAP Diversity Plus: hDFCGF Assay for Interleukin-8 (IL8) Biomarker Activity (AID 2283058)
cond: primary human foreskin fibroblasts; actives raise or lower the signal
Active and inactive are the calls of the source. How the source made its calls: active means hit-call score of the fitted dose curve at least 0.9, where 1 is the maximum; inactive means score below 0.9.
Please reply with one of these outcomes: t (active), f (inactive)

Example entries begin here.
>  <compound>
O=C(Oc1ccccc1)c1ccccc1C(=O)Oc1ccccc1

>  <category>
f

$$$$
>  <compound>
CC(Cl)COP(=O)(OCC(C)Cl)OCC(C)Cl (stereo unspecified)

>  <category>
f

$$$$
>  <compound>
C=CC(=O)NCOCCCC

>  <category>
f

$$$$

Query: Could you check what this test reported for `O=C(Cl)c1c(Cl)c(Cl)c(C(=O)Cl)c(Cl)c1Cl` ?
Response: f

Query: Could you check what this test reported for `Cc1ccc([N+](=O)[O-])cc1N` ?
Response: f

Query: Could you check what this test reported for `CCCCCCCCCCCC(=O)N(C)CC(=O)O` ?
Response: f

Query: Could you check what this test reported for `C=CC(=O)OCCCCCCOC(=O)C=C` ?
Response: t

Query: Could you check what this test reported for `Oc1c(Cl)cc(Cl)c(Cl)c1Cl` ?
Response: f

Query: Could you check what this test reported for `CCCCCCCO` ?
Response: f

Query: Could you check what this test reported for C=CC(=O)OCC(C)OCC(C)OCC(C)OC(=O)C=C (stereo unspecified) ?
Response: t

Query: Could you check what this test reported for `CC/C=C\C/C=C\C/C=C\CCCCCCCC(=O)OC` ?
Response: t

Query: Could you check what this test reported for `CCCCC1C(=O)N(c2ccccc2)N(c2ccccc2)C1=O` ?
Response: f

Query: Could you check what this test reported for `COC(OC)(C(=O)c1ccccc1)c1ccccc1` ?
Response: f

Query: Could you check what this test reported for `CC/C=C\CCOC(=O)c1ccccc1O` ?
Response: f

----------
System: SERPINA7 (gene 6906)
assayOverview: CCTE_GLTED_hTBG: CCTE's human Thyroxine-binding Globulin (TBG) Inhibition Assay, Great Lakes Toxicology and Ecology Division (GLTED) Lab (AID 2284343);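 further: active chemicals lower fluorescence versus DMSO baseline by displacing probe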
Calls of active or inactive are those of the source. Rule for the calls: active = hit-call score of the fitted dose curve at least 0.9, where 1 is the maximum; inconclusive = response in the unintended direction; inactive = score below 0.9.
In this section we review reported AC50 values for a set of compounds.

Query: Look up and report AC50, with SERPINA7 (gene 6906) as system, for `Cc1ccc([N+](=O)[O-])cc1N`
Response: 50 µM (active)

Query: Look up and report AC50, with SERPINA7 (gene 6906) as system, for `O=S(=O)(O)c1ccc(N=Nc2c(O)ccc3ccccc23)cc1`
Response: 19 µM (active)

Query: Look up and report AC50, with SERPINA7 (gene 6906) as system, for `CC(CCC(=O)O)(c1ccc(O)cc1)c1ccc(O)cc1`
Response: 37.7 µM (active)

Query: Look up and report AC50, with SERPINA7 (gene 6906) as system, for CC1=NN(c2ccc(S(=O)(=O)O)cc2)C(=O)C1N=Nc1ccccc1 (stereo unspecified)
Response: 27.3 µM (active)

Query: Look up and report AC50, with SERPINA7 (gene 6906) as system, for `O=C(Oc1ccccc1)c1ccccc1O`
Response: 2.52 µM (active)

Query: Look up and report AC50, with SERPINA7 (gene 6906) as system, for `COc1ccc(-c2coc3cc(O)cc(O)c3c2=O)cc1`
Response: 23 µM (active)
